For each of the compounds below, state its inhibition at 0.1 µM.
Molecular target: recombinant human Cox-2 (r-hu Cox-2, PGHS-2) (Homo sapiens)
Construct: made in house; host or cells: baculovirus/Sf9 insect cells (microsomes)
Sequence (P35354 18-604): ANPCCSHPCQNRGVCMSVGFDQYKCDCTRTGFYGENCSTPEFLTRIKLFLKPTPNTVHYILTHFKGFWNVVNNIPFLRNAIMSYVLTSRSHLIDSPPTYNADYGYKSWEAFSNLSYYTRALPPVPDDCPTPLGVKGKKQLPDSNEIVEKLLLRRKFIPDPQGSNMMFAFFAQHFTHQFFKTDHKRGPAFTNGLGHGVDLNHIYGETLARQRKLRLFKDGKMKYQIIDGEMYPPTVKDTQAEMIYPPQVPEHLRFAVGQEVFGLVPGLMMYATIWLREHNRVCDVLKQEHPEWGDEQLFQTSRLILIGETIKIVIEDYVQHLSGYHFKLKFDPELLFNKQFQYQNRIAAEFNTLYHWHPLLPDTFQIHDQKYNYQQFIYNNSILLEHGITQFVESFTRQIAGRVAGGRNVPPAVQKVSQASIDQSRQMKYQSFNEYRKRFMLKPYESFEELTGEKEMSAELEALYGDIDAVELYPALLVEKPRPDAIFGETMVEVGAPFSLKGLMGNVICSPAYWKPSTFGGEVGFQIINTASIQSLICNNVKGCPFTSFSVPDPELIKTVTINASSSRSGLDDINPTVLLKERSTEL
Assay: Recombinant human PGHS-2 (r-hu Cox-2) enzyme assay, PGE2 by EIA
Format: biochemical
Settings: at 100 nM; read-out: r-hu COX2 percent inhibition
Remember to put the unit after the number in your answer.

Query string: Which inhibition at 0.1 µM is listed for `CS(=O)(=O)c1ccc(-c2c(-c3ccc(F)cc3)c(OCc3ccccc3)nn2Cc2ccccc2)cc1` ?
Result string: 42%

Query string: // returns reported inhibition at 0.1 µM for input `CCn1nc(OCC(=O)c2ccc(F)cc2)c(-c2ccc(F)cc2)c1-c1ccc(OC)cc1`
Result string: 50%

Query string: Which measured inhibition at 0.1 µM value corresponds to CCn1nc(OC2CSCCC2=O)c(-c2ccc(F)cc2)c1-c1ccc(S(C)(=O)=O)cc1 (stereo not drawn) ?
Result string: 37%

Query string: Consider the compound shown here: `CS(=O)(=O)c1ccc(-c2c(-c3ccc(F)cc3)c(OCC(=O)c3ccc(F)cc3)nn2CC(=O)c2ccc(F)cc2)cc1` What is its recorded inhibition at 0.1 µM?
Result string: 90%

Query string: Find the recorded inhibition at 0.1 µM belonging to CS(=O)(=O)c1ccc(-c2c(-c3ccc(F)cc3)c(OCC(=O)c3cccs3)nn2CC(=O)c2cccs2)cc1 [Example 20A] and report it.
Result string: 38%

Query string: Recorded inhibition at 0.1 µM for `CCn1nc(OCC(=O)C(C)(C)C)c(-c2ccc(F)cc2)c1-c1ccc(S(N)(=O)=O)cc1` , please?
Result string: 55%

====

Would you kindly list melting point for each of these molecules?

Query string: // query melting point value for entry `CS(=O)(=O)c1ccc(-c2nn3ccoc3c2-c2ccc(F)cc2)cc1`
Result string: 67 to 70 °C

Query string: Which melting point value belongs to `CCc1coc2c(-c3ccc(F)cc3)c(-c3ccc(S(N)(=O)=O)cc3)nn12` ?
Result string: 234 to 236 °C

Query string: Quick one: melting point of `Cc1cc(-c2coc3c(-c4ccc(F)cc4)c(-c4ccc(S(C)(=O)=O)cc4)nn23)ccc1Cl` ?
Result string: 202 to 205 °C

Query string: melting point lookup needed for `C=CCn1nc(OCC(=O)c2cccs2)c(-c2ccc(F)cc2)c1-c1ccc(S(C)(=O)=O)cc1` , thanks.
Result string: 146 to 148 °C

Query string: May I ask what melting point has been recorded for `CCOC(=O)c1oc2c(-c3ccc(F)cc3)c(-c3ccc(S(C)(=O)=O)cc3)nn2c1C` ?
Result string: 203 to 204 °C

Query string: # input molecule: `CS(=O)(=O)c1ccc(-c2c(-c3ccc(F)cc3)c(OCc3c(F)cccc3Cl)nn2Cc2c(F)cccc2Cl)cc1` ; wanted: its melting point
Result string: 195 to 196 °C

Query string: Request the reported melting point associated with `Cc1c(-c2cccc(C(F)(F)F)c2)oc2c(-c3ccc(F)cc3)c(-c3ccc(S(C)(=O)=O)cc3)nn12`
Result string: 194 to 195 °C

Query string: Would you kindly share the measured melting point for `Cc1oc2c(-c3ccc(F)cc3)c(-c3ccc(S(C)(=O)=O)cc3)nn2c1C` ?
Result string: 158 to 160 °C
